Target: Cytochrome P450 2C19 (Homo sapiens) (UniProt P33261)
Sequence (P33261 whole entry, looked up): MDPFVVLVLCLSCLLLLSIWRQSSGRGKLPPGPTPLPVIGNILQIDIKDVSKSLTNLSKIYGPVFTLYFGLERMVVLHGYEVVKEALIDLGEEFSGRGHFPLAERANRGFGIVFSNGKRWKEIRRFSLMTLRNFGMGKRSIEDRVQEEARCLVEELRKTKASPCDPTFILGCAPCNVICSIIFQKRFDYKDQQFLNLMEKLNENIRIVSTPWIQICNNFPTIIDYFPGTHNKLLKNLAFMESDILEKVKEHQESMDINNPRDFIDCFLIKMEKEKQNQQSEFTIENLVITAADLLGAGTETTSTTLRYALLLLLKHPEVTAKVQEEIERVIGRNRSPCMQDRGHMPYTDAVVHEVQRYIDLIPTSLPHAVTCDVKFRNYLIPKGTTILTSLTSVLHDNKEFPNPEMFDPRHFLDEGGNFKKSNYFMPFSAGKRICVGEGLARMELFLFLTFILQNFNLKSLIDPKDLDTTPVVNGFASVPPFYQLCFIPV
Test: blockers of cytochrome P450 2C19 activity – biochemical, luminescence, ADME assay, primary screen (AID 778);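 also: plate controls were negative control wells for no effect and 2.5 mM tranylcypromine positive control for full effect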
Conditions: CYP2C19 Supersomes, luciferin-H EGE luminescence, 30 min; at 5 µM; stronger effect = higher value
The campaign covered roughly 96,000 compounds. About 20,000 (21%) were called active. A selection follows.
We use 10% as the dividing line for inhibition: on or above the line is 1, below is 0.

>>> df
                                   compound  category_label
0  O=C1[C@@H]2C(Cc3ccc(O)cc3)NC3(C(=O)Nc4ccc(F)cc43)[C@@H]2C(=O)N1c1ccc(F)cc1 (stereo partly specified)               1
1                CCCCSc1nnc(-c2ccc(C)cc2)o1               1
2  N#C/C(=C(/O)COc1cccc2ccccc12)c1nc2ccccc2[nH]1               1
3                  NC(=O)Cn1c(=O)oc2ccccc21               0
4  Cc1cc(C)c2c(-n3cccc3)c(NC(=O)OCc3ccccc3)sc2n1               0
5         O=C(CSc1nnc(-c2ccccc2)o1)N1CCOCC1               0

----------
Biological target: Cytochrome P450 2C19 (Homo sapiens) (UniProt P33261)
Experiment: blockers of cytochrome P450 2C19 activity – biochemical, luminescence, ADME assay, primary screen (AID 778);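 also: plate controls were negative control wells for no effect and 2.5 mM tranylcypromine positive control for full effect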
Settings: CYP2C19 Supersomes, luciferin-H EGE luminescence, 30 min; at 5 µM
Out of some 96,000 compounds screened, about 20,000 (21%) were called active.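 The calls were made as follows: active = CYP2C19 inhibition above a set limit at 5 µM in the primary screen (cut at about 50% in these data); inactive = the rest.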 These entries were drawn from the full list.
Outcomes: True for active, False for inactive

In [3]: df
Out[3]:
                                    molecule  category_label
 0  COc1ccc(C(=O)Nc2c(N)nc(SCC(=O)N3CCC(C)CC3)[nH]c2=O)cc1OC           False
 1  Cc1ccn(C(CC(=O)c2ccc(Br)cc2)C(=O)O)n1 (stereo not given)           False
 2  COc1ccc(OC)c2c(N)c(C#N)c(C(F)(F)C(F)(F)F)nc12           False
 3  Cn1c(=O)c2c(nc(SCC(=O)Nc3ccccc3N3CCCCC3)n2C)n(C)c1=O            True
 4  CCOC(=O)C1Sc2[nH]c(=O)sc2C(c2ccc(Cl)cc2)C1C(=O)OCC (stereo not given)           False
 5  C=CCOc1ccc(C2/C(=C(\O)c3c(C)[nH]c(C(=O)OC)c3C)C(=O)C(=O)N2CCN(C)C)cc1 (stereo not given)           False
 6  Cc1ccccc1-c1ccc(Nc2ccc(C(=O)N3CCOCC3)cc2)nn1           False
 7  COc1ccc(C2CC(=O)C=C(NCC3CCCO3)C2)cc1 (stereo not given)           False
 8  O=C(CNS(=O)(=O)c1cccc(C(F)(F)F)c1)Nc1ccccc1F            True
 9           Cn1c(=NC(=O)c2cnccn2)sc2ccccc21           False
10  Cc1ccc(S(=O)(=O)N/N=C\c2cc3c(cc2[N+](=O)[O-])OCO3)cc1           False
11  CCCCOC(=O)c1ccc(N2C(=O)CC(N3CCN(C/C=C/c4ccccc4)CC3)C2=O)cc1 (stereo not given)            True
12                 CN(CCO)Cc1csc2ccc(Br)cc12           False
13         O=C1N=C2SCCN2/C1=C\c1c(Cl)cccc1Cl           False
14  Cc1ccc(C)c(NC(=O)c2ccc(OC(=O)c3ccco3)cc2)c1           False
15     CCn1c(Cc2cccs2)nnc1SCC(=O)c1ccc(C)cc1            True
16  COc1ccc(C(C#N)Nc2ccccc2C)cc1 (stereo not given)            True
17                   CCCNc1ncnc2sc(C)c(C)c12           False
18  CCC1(C)N(O)C(C)(C)C(c2ccc(OC)cc2)=[N+]1[O-] (stereo not given)           False
19  CC(c1nnc(SCC(=O)Nc2sccc2C#N)n1-c1ccc(Cl)cc1)N(C)C (stereo not given)           False
20  CCOC(=O)c1ccc(N2C(=O)CC(N3CCC(C(=O)OCC)CC3)C2=O)cc1 (stereo not given)           False
21  CC(C)n1c(SCC(=O)Nc2ccccc2N2CCCCC2)nc2c1c(=O)n(C)c(=O)n2C           False
22           Cc1nnc(C)n1/N=C/c1ccc(C(C)C)cc1           False
23  COc1ccc(C(C#N)N2N=C(C)CC2(C)C)cc1 (stereo not given)           False
24  CC1Cc2ccccc2N1C(=O)c1cc2sccc2n1Cc1ccccc1 (stereo not given)           False
25   CC(=O)c1cnc(SCCN2C(=O)c3ccccc3C2=O)nc1C            True
26               O=C1NC2(CCCCC2)N=C1c1ccccc1           False
27                O=C1CSC2=NCN(c3ccccc3)CN12           False
28   COCCCNC(=O)CCc1nc2cccnc2n1Cc1ccc(OC)cc1           False
29  O=C(CN1C(=O)COc2ccccc21)NCCN1CCc2ccccc2C1            True
30  CC1(C)CC(=O)C=C(NC2CC(C)(C)NC(C)(C)C2)C1           False
31              Cn1nnc(NC(=O)CSc2ncn[nH]2)n1           False
32  Cn1c(=O)c2c(nc(SCCNS(=O)(=O)c3ccccc3)n2C)n(C)c1=O            True
33  CCCN1CCN(CCCNC(=O)CN2C(=O)COc3ccccc32)CC1           False
34  CCCc1[nH]nc2c1C(c1ccc(OC)c(Cn3nc(C)c(Br)c3C)c1)C(C#N)=C(N)O2 (stereo not given)           False
35  CCOc1ccc(NC(=O)CCS(=O)(=O)c2ccc3c(c2)CCCN3C(=O)CC)cc1           False
36  O=C(Cn1cc(/C=N/NC(=O)c2cccc(C(F)(F)F)c2)c2ccccc21)Nc1ccc(F)cc1           False
37      O=C(CN1C(=O)COc2ccccc21)Nc1ccc(F)cc1           False
38  O=C(CSc1ncnc2c1cnn2CCc1ccccc1)Nc1ccc(F)cc1           False
39  COCCCn1c2nc3ccccc3nc2c2c(=O)n(Cc3ccc(Cl)cc3)c(C)nc21            True
40  CCOc1c(OC)cc(C2C(C#N)=C(N)Oc3n[nH]c(-c4ccncc4)c32)cc1OC (stereo not given)           False
41  C=CCC(NCc1ccco1)c1ccc(OC)cc1 (stereo not given)           False
42  C=CCn1c(C)cc(C(=O)CN2C(=O)c3ccccc3C2=O)c1C           False
43              O=C(c1ccc(Cl)c(Cl)c1)N1CCCC1           False
44  CCOC(=O)c1ccc(N2C(=O)CC(N3CC(C)OC(C)C3)C2=O)cc1 (stereo not given)           False

Reference source: PubChem BioAssay AID778
